# assay system: furin, P09958;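 also: purified furin at 1:10 enzyme:substrate in 50 mM HEPES pH 7.5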
# Sequence (P09958 whole entry): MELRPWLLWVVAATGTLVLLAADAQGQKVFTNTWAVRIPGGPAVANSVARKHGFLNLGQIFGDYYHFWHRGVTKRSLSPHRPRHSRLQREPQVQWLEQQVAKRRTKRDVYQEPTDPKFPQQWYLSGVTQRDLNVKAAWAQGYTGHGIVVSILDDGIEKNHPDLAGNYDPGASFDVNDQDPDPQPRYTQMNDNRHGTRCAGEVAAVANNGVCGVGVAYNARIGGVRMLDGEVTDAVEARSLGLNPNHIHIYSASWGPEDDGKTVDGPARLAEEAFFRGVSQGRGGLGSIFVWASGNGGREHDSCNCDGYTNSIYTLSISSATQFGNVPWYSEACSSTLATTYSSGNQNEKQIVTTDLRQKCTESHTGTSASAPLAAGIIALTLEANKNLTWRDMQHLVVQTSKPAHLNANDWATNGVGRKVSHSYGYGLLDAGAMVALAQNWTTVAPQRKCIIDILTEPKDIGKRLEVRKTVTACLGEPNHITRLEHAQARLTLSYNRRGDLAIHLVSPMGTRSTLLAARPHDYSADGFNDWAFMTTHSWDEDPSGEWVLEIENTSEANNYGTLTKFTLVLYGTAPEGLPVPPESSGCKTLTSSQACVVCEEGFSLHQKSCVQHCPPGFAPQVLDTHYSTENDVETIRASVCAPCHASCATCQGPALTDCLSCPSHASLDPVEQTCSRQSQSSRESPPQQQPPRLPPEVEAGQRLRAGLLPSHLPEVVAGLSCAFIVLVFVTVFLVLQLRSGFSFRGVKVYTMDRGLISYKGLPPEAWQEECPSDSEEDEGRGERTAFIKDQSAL
# assay comment: furin cleavage Z-score vs untreated control; higher = more cleavage, active = 3.5 or more, inactive = 1 or less, 8 variable residues between constant flanks
# assay setup: 7.5 min
The other results are listed elsewhere or left out. The hit rate among all sequences tested is not known here.
Use 0.4 as the dividing line for furin cleavage Z-score, with the line itself on the Criterion met side and lower values as Criterion not met.

1) CARDWAHNGLAGNASASA [HC639] :: Criterion not met
2) CARLCRRSRAAGNASASA [FS-1561] :: Criterion met
3) CANIIMFAPTAGNASASA [HC1576] :: Criterion not met
4) CAAHDGAGKRAGNASASA [HC1557] :: Criterion not met
5) CAEDTTPCSGAGNASASA [HC1971] :: Criterion not met
6) CARLEREKRAAGNASASA [FS-859] :: Criterion met
7) CADEEVVTSTAGNASASA [HC2292] :: Criterion met
